Ref: PubChem BioAssay (NCI)

Test system: MDA-MB-435 melanoma
assaySummary: NCI-60 one-dose screen, 48 h (100 = growth as untreated, 0 = no growth, -100 = all killed)
conditionInfo: 10 µM unless noted
Compounds without any hit were thinned out: in the full panel of roughly 83,000, 20% have a hit. The source made the active and inactive calls. How the source made its calls: active means growth percent below 10; inactive means the rest.
measuredAttribute: growth

What measured growth goes with CCOC(=O)C(O)C(O)(c1ccccc1)c1ccccc1 (stereo not given) ?
111% (inactive)

I'd like to know its growth. The compound in question is O=C(CC1Sc2ccccc2NC1=O)NNc1ccc(F)cc1 (stereo not given)
31% (inactive)

Can you share its growth? I mean this compound: COc1cc2ccccc2cc1C(=O)NC(=S)Nc1ccc(-c2nc3ccccc3[nH]2)cc1
80.2% (inactive)

Quick check: growth of C=C(Cl)COC(=O)C(C)(C)O ?
104% (inactive)

// growth lookup, key: Cl.[Pt].[c-]1ccccc1-c1ccccn1.c1ccc(P(c2ccccc2)C([PH+](c2ccccc2)c2ccccc2)[PH+](c2ccccc2)c2ccccc2)cc1
4.42% (active)

---

Tested on: IGROV1 ovarian
assaySummary: NCI-60 one-dose screen, 48 h (100 = growth as untreated, 0 = no growth, -100 = all killed)
conditionInfo: 10 µM unless noted
This is part of a sample that, as a whole, favours compounds with a hit. Of some 83,000 tested, about 20% had one in any assay.
measuredAttribute: growth (%)
Enter your answer as a number in %; do not include the unit.

Value lookup for growth; key = COc1ccc(-n2ncn(CCCCCCn3cnn(-c4ccc(OC)cc4)c3=O)c2=O)cc1
90.6

// query growth value for entry CCCCCCN(CCCCCC)CC(O)c1cccc2ccc(Cl)cc12 (stereo unspecified)
40.8

Would you kindly share the measured growth for COc1cc2oc3cc(C)oc(=O)c3c2cc1OC ?
98.9

What does the record list as growth for CCCCNCC(=O)Nc1ccc(C(=O)OCC)cc1 ?
105

// returns reported growth for input NS(=O)(=O)c1cn(-c2ncnc3nc[nH]c23)ccc1=O
97.2

Query: growth; subject: c1ccc2c(c1)ncn2-c1nc2ccccc2n2c1nc1ccccc12
51.4

---

System: ACHN renal
assaySummary: NCI-60 one-dose screen, 48 h (100 = growth as untreated, 0 = no growth, -100 = all killed)
conditionInfo: 10 µM unless noted
Compounds without any hit were thinned out: in the full panel of roughly 83,000, 20% have a hit.
For each record, write down the corresponding growth.
State the answer as a number, implicitly in %.

GET /values?readout=growth&item= C=C(C)[C@@H]1CC[C@]2(CNCCO)CC[C@]3(C)[C@H](CC[C@@H]4[C@@]5(C)CCC(N)[C@@](C)(CO)[C@@H]5CC[C@]43C)[C@@H]12 (some centres undefined)
54.4

Requested field: growth. Item: O=C1CSC(c2ccccc2Cl)N1c1nnc(Cn2cnnc2)o1 (centres undefined)
73.6

Could you tell me which growth is on file for O=C(C[C@@]1(O)C(=O)Nc2c(Cl)ccc(Cl)c21)c1ccc(C2CC2)cc1 ?
39.6

Name the recorded growth for CN(C)c1ccc2cc(-c3ccc(Cl)c(Cl)c3)c(N)nc2c1 .
52.3

Any idea what its growth is? The compound is CS(=O)(=O)c1ccc(-c2nc3cc(Cl)ccc3n2CC(=O)N/N=C/c2ccc(Cl)cc2)cc1
61.5

Form field: reported growth of O=C1NCC(=O)N(Cc2ccco2)[C@H]1Cc1ccccc1
105

Quick check: growth of CN=C1C=CC(=C(c2ccc(N(C)C)cc2)c2ccc(N(C)C)cc2)C=C1 ?
-53.4

For the compound Cc1nc(Nc2cccc(NC(=O)Nc3ccc(Cl)cc3)c2)c2ccccc2n1 , what growth is on record?
105

Fill blank: measured growth of the compound Cl.Fc1c[c-]c(-c2ccccn2)c(F)c1.[Pt].c1ccc([PH+](C[PH+](c2ccccc2)c2ccccc2)c2ccccc2)cc1 is ____.
-97.8

Requested field: growth. Item: O=C(NCCN1CCC(O)CC1)c1cc2c(o1)C(=O)c1ccccc1C2=O
-89.2

Value lookup for growth; key = O=C1Nc2ccc(Cl)cc2/C1=N/N=C/c1c[nH]c2ccccc12
49.8

Any idea what growth was measured for CN(C)c1ccc(/C=C/c2c(F)cccc2F)cc1 ?
92.7

Fill in the blank: the reported growth of CC(C)c1ccc(C(=O)OC(=O)c2ccc(C(C)C)cc2)cc1 is ____.
96

Report growth for CCCCN1CCN(c2ccc3nc(-c4ccc5nc(-c6ccc(OCC)c(OCC)c6)[nH]c5c4)[nH]c3c2)CC1 please.
12.7

Please report the recorded growth for CCOc1cc(N)ccc1C(=O)NCCCN(CC)CC .
94.6

I'd like to know its growth. The compound in question is O=C(Nc1ccccc1)c1sc(-c2cccc(C(F)(F)F)c2)cc1O
79.5

Requested read-out: growth. Entry: COc1cc(-c2ccc(N=Nc3c(O)c(C(=O)Nc4ccccc4OC)cc4ccccc34)c(OC)c2)ccc1N=Nc1c(O)c(C(=O)Nc2ccccc2OC)cc2ccccc12
90.7

Return reported growth; argument: CCn1c(Sc2nnc(NC(C)=O)s2)nc2c1c(=O)n(C)c(=O)n2C
95.5

So what does the record say about growth for COc1ccc(/C=N/NC(=O)Cn2c(-c3ccc(S(C)(=O)=O)cc3)nc3cc(Cl)ccc32)cc1 ?
30.3
